# credit: patent US5073563A

Molecular target: MAO B (Rattus norvegicus, UniProt P19643)
Construct: determined in dilute rat brain homogenate; from tissue; host or cells: rat brain homogenate
Experiment: MAO B inhibition in dilute rat brain homogenate (14C substrate, 20 min at 37° C)
Type: biochemical
Conditions: quotient of IC50 MAO A and IC50 MAO B (selectivity for MAO B); 20 min
ENDPOINT_NAME: IC50 ratio MAO A / MAO B

Answered cases to consult:
COMPOUND	TARGET_OR_TEST_SYSTEM	ENDPOINT_NAME	RESULT
CCOc1nnc(COc2ccc3c(C)c(C)c(=O)oc3c2)s1 [Example 62]	MAO B (Rattus norvegicus, UniProt P19643)	IC50 ratio MAO A / MAO B	> 1300
Cc1nnc(COc2ccc3c4c(c(=O)oc3c2)CCCC4)s1 [Example 32]	MAO B (Rattus norvegicus, UniProt P19643)	IC50 ratio MAO A / MAO B	> 1400
Cc1c(C)c2ccc(OCC3COc4ccccc4O3)cc2oc1=O (centres unmarked) [Example 21]	MAO B (Rattus norvegicus, UniProt P19643)	IC50 ratio MAO A / MAO B	~ 1300
Cc1c(C)c2ccc(OCc3coc(Cc4cccc(Cl)c4)c3)cc2oc1=O [Example 25]	MAO B (Rattus norvegicus, UniProt P19643)	IC50 ratio MAO A / MAO B	> 590

Now let's try a different one.
In: Lookup: IC50 ratio MAO A / MAO B / MAO B (Rattus norvegicus, UniProt P19643) / Cc1c(C)c2ccc(OCc3nc(C4CCCC4)no3)cc2oc1=O [Example 98]
Out: > 11000

====

Molecular target: MAO B (Rattus norvegicus, UniProt P19643)
Sequence (P19643 1-520): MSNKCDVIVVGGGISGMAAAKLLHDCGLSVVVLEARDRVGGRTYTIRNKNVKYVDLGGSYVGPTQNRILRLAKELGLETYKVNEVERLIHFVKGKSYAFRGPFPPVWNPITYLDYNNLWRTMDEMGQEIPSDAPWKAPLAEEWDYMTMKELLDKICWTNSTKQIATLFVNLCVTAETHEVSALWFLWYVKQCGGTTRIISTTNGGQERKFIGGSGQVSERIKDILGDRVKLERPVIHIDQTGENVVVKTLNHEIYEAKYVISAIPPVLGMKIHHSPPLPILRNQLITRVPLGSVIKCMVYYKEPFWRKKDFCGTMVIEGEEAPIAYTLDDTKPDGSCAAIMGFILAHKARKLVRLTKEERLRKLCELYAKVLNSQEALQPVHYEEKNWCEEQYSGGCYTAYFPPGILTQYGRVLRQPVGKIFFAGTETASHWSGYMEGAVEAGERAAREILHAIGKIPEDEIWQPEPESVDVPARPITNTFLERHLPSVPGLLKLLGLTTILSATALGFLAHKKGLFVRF
ENDPOINT_NAME: IC50 (nM)

COMPOUND	TARGET_OR_TEST_SYSTEM	ENDPOINT_NAME	NUMBER
Cc1c(C)c2ccc(OCc3cc(C4CCCCC4)no3)cc2oc1=O [Example 99]	MAO B (Rattus norvegicus, UniProt P19643)	IC50	8.2
COC(C)c1cc(COc2ccc3c(C)c(C)c(=O)oc3c2)on1 (centres unmarked)	MAO B (Rattus norvegicus, UniProt P19643)	IC50	1.2
CCc1nnc(COc2ccc3c(C)c(C)c(=O)oc3c2)o1	MAO B (Rattus norvegicus, UniProt P19643)	IC50	11
Cc1nnc(COc2ccc3cc(C)c(=O)oc3c2)s1	MAO B (Rattus norvegicus, UniProt P19643)	IC50	15
Cc1c(C)c2ccc(OCc3cc(C4CC4)n(C)n3)cc2oc1=O	MAO B (Rattus norvegicus, UniProt P19643)	IC50	1.9
Cc1c(C)c2ccc(OCc3csc(Cc4ccccc4)n3)cc2oc1=O	MAO B (Rattus norvegicus, UniProt P19643)	IC50	5.5

1: Cc1c(C)c2ccc(OCc3cc(C)n(C)n3)cc2oc1=O
2: CCOc1nnc(COc2ccc3c(C)c(C)c(=O)oc3c2)s1
In: Please compare: 1 and 2 . Report which one has the smaller IC50 value. Your answer should be the label attached to the chosen record.
Out: 2

A: Cc1nnc(COc2cc3oc(=O)c(Cl)c(C)c3cc2Cl)s1
B: Cc1c(C)c2ccc(OCc3cc(C4(C)CC4)no3)cc2oc1=O
In: Kindly identify which of A and B has the larger recorded IC50 value. Please indicate the selected item by its label.
Out: A
(A: 1 nM, B: 0.61 nM)

1: Cc1c(C)c2ccc(OCc3nnc(C4CC4)s3)cc2oc1=O
2: Cc1c(C)c2ccc(OCc3cc(C4CCCCC4)no3)cc2oc1=O [Example 87]
In: Input pair: 1 , 2 . Output: entry with lower IC50. // output: label of the selected item
Out: 1
(1: 1.2 nM, 2: 14 nM)

a: Cc1c(C)c2ccc(OCc3cc(C4CCCC4)no3)cc2oc1=O
b: Cc1c(C)c2ccc(OCc3cc(C(C)C)nn3C)cc2oc1=O
c: Cc1ccsc1COc1ccc2c(C)c(C)c(=O)oc2c1
In: Ascending by IC50, please. Give the labels in the order requested.
Out: c, a, b
(c: 0.51 nM, a: 1.3 nM, b: 4.9 nM)
